Tested on: HepG2
TEST: cytotoxicity call (relative viability < 0.9)
CONDITION DESCRIPTION: 10 µM
In all, about 39,000 compounds went through this assay and about 3,300 (8.5%) were called active. The full list was thinned out, with actives kept by preference.
PROPERTY LABEL: cytotoxicity call

Case C[C@@H](NC(=O)c1ccccc1)C(=O)NN , HepG2, cytotoxicity call recorded as inactive

Case COc1ccc(NC(=O)N(C)C[C@@H]2Oc3ccc(NC(=O)CCCCCC(=O)Nc4ccccc4N)cc3C(=O)N([C@H](C)CO)C[C@H]2C)cc1 , HepG2, cytotoxicity call recorded as inactive

Case CC(C)CC#Cc1ccc2c(c1)O[C@@H](CN(C)Cc1cncnc1)[C@@H](C)CN([C@H](C)CO)S2(=O)=O , HepG2, cytotoxicity call recorded as inactive

* * *

Test system: HepG2
TEST: cytotoxicity call (relative viability < 0.9)
CONDITION DESCRIPTION: 10 µM
In all, about 39,000 compounds went through this assay and about 3,300 (8.5%) were called active. This excerpt belongs to a sample that is enriched for actives.
Respond with a class label; see yes (1) (active), no (0) (inactive)

Below, 5 molecules whose answers are already recorded.
Kindly provide the recorded test outcome for the following molecule: C[C@@H]1CCCCO[C@H](CN(C)CC2CCCCC2)[C@H](C)CN([C@@H](C)CO)C(=O)c2cc(NS(=O)(=O)c3ccc(F)cc3)ccc2O1
no (0)

Kindly provide the recorded test outcome for the following molecule: C[C@@H]1CN([C@H](C)CO)C(=O)c2cc(NS(=O)(=O)c3ccc(F)cc3)ccc2O[C@@H](C)CCCCO[C@H]1CN(C)CC1CCCCC1
yes (1)

Kindly provide the recorded test outcome for the following molecule: Cc1cccc(CN(C)C[C@@H]2Oc3ncc(-c4cccc(C(F)(F)F)c4)cc3C(=O)N([C@H](C)CO)C[C@@H]2C)c1
no (0)

Kindly provide the recorded test outcome for the following molecule: C[C@@H]1CCCCO[C@@H](CN(C)S(=O)(=O)c2cccs2)[C@H](C)CN([C@@H](C)CO)C(=O)c2cc(NC(=O)Nc3cccc4ccccc34)ccc2O1
no (0)

Kindly provide the recorded test outcome for the following molecule: C[C@@H]1CN([C@H](C)CO)C(=O)c2cc(NS(=O)(=O)c3cccs3)ccc2O[C@@H](C)CCCCO[C@H]1CN(C)Cc1ccc2c(c1)OCO2
no (0)

Next:
Kindly provide the recorded test outcome for the following molecule: COc1ccc(CN(C)C[C@H]2OCCCC[C@@H](C)Oc3ccc(NC(=O)Nc4ccc5c(c4)OCO5)cc3C(=O)N([C@@H](C)CO)C[C@H]2C)cc1
no (0)

* * *

System: HepG2
TEST: cytotoxicity call (relative viability < 0.9)
CONDITION DESCRIPTION: 10 µM
About 3,300 (8.5%) of roughly 39,000 compounds were called active. Many of the other results were omitted from the sample, so actives are more common in it than they were.
Respond with a class label; see active, inactive

Below, 3 molecules whose answers are already recorded.
Kindly provide the recorded test outcome for the following molecule: C[C@H]1CCCCO[C@@H](CN(C)C(=O)Nc2ccc(C(F)(F)F)cc2)[C@@H](C)CN([C@@H](C)CO)C(=O)c2cc(NS(=O)(=O)c3ccc(Cl)cc3)ccc2O1
inactive

Kindly provide the recorded test outcome for the following molecule: COc1ccc(NC(=O)N(C)C[C@@H]2OCCCC[C@H](C)Oc3ccc(NC(=O)Nc4ccc5c(c4)OCO5)cc3C(=O)N([C@H](C)CO)C[C@@H]2C)cc1
inactive

Kindly provide the recorded test outcome for the following molecule: C[C@H]1CCCCO[C@H](CN(C)Cc2ccc(C(F)(F)F)cc2)[C@@H](C)CN([C@@H](C)CO)C(=O)c2cc(NS(=O)(=O)c3ccccc3)ccc2O1
inactive

Next:
Kindly provide the recorded test outcome for the following molecule: C[C@H]1CCCCO[C@@H](CN(C)Cc2ccc(C(F)(F)F)cc2)[C@@H](C)CN([C@@H](C)CO)C(=O)c2cc(NS(=O)(=O)c3ccccc3)ccc2O1
inactive

Kindly provide the recorded test outcome for the following molecule: C[C@@H]1CN([C@H](C)CO)C(=O)c2cc(NS(=O)(=O)c3ccc(Cl)cc3)ccc2O[C@@H]1CN(C)C(=O)Nc1ccc(C(F)(F)F)cc1
active

Kindly provide the recorded test outcome for the following molecule: C[C@@H]1CCCCO[C@@H](CN(C)C(=O)Nc2ccc(C(F)(F)F)cc2)[C@H](C)CN([C@@H](C)CO)C(=O)c2cc(NS(=O)(=O)c3ccc(Cl)cc3)ccc2O1
inactive
